Data provenance is PubChem BioAssay (Tox21).

- TEST_NAME: qHTS assay to identify small molecule agonists of the sonic hedgehog signaling (Shh) pathway - cell viability counter screen (AID 1259366); note: nearly all actives have a fitted effect of over 50% in size
- CONDITION_NOTES: NIH/3T3 Gli1-Luc viability, CellTiter-Fluor, 24 h; series mostly up to 92.4 µM
Results filed as inconclusive are left out. Calls of active or inactive are those of the source. Calls come from the whole dose curve; as a rule, active = well fitted cell-killing curve with a large enough effect in the repeat runs; inconclusive = weak or mixed curves, or effect the other way; inactive = flat fitted curve, though single readings scatter.
Classes used: 1.0 (active), 0.0 (inactive)

compound=O=C(OC[C@H]1O[C@@H](OC(=O)c2cc(O)c(O)c(OC(=O)c3cc(O)c(O)c(O)c3)c2)[C@H](OC(=O)c2cc(O)c(O)c(OC(=O)c3cc(O)c(O)c(O)c3)c2)[C@@H](OC(=O)c2cc(O)c(O)c(OC(=O)c3cc(O)c(O)c(O)c3)c2)[C@@H]1OC(=O)c1cc(O)c(O)c(OC(=O)c2cc(O)c(O)c(O)c2)c1)c1cc(O)c(O)c(OC(=O)c2cc(O)c(O)c(O)c2)c1 label_class=1.0
compound=CCCCCCCCCCC=O label_class=0.0
compound=O=C(Nc1cccc(Cl)c1)OCC#CCCl label_class=1.0
compound=CCCCCCCC[P+](CCCCCCCC)(CCCCCCCC)CCCCCCCC label_class=1.0
compound=c1ccc(CSCc2ccccc2)cc1 label_class=0.0
compound=NC(=O)NS(=O)(=O)c1ccc(N)cc1 label_class=0.0
compound=CC(=O)SC[C@@H](Cc1ccccc1)C(=O)NCC(=O)OCc1ccccc1 label_class=0.0
compound=Cc1ccc(-n2nc(C(C)(C)C)cc2NC(=O)Nc2ccc(OCCN3CCOCC3)c3ccccc23)cc1 label_class=0.0
compound=Cc1ccc2oc(CN(Cc3ccccc3)C(=O)Nc3c(F)cc(F)cc3F)c(-c3ccc(Cl)cc3)c2c1 label_class=0.0
compound=CC(C)c1ccc2c(c1)CC[C@H]1[C@](C)(CN)CCC[C@]21C label_class=1.0
compound=Nc1c(Cl)cc(Cl)cc1Cl label_class=0.0
compound=C=CC(=O)OCC(CO)(COCC(COC(=O)C=C)(COC(=O)C=C)COC(=O)C=C)COC(=O)C=C label_class=1.0
compound=CC(C)(C)c1ccc(C(=O)CCCN2CCC(OC(c3ccccc3)c3ccccc3)CC2)cc1 label_class=1.0
compound=CC(C)(C)CC(C)(C)c1ccc(OCCOCC[N+](C)(C)Cc2ccccc2)cc1 label_class=1.0
compound=CCCCCOC(=O)CCCC label_class=0.0
compound=OC1(c2ccc(Cl)c(C(F)(F)F)c2)CCN(CCCC(c2ccc(F)cc2)c2ccc(F)cc2)CC1 label_class=1.0
compound=O=C1C=CC(=O)N1c1ccc(Cc2ccc(N3C(=O)C=CC3=O)cc2)cc1 label_class=1.0
compound=CO[Si](CCCNc1ccccc1)(OC)OC label_class=0.0
compound=C/C(=C(/OCCOc1ccc(Cl)cc1)c1ccc(Cl)cc1Cl)n1ccnc1 label_class=0.0
compound=CCC1=C[C@@H]2CN(C1)Cc1c([nH]c3ccccc13)[C@@](C(=O)OC)(c1cc3c(cc1OC)N(C)[C@H]1[C@@](O)(C(=O)OC)[C@H](OC(C)=O)[C@]4(CC)C=CCN5CC[C@]31[C@@H]54)C2 label_class=1.0
compound=OCCN1CCN(CC/C=C2/c3ccccc3Sc3ccc(C(F)(F)F)cc32)CC1 label_class=1.0
compound=CN(C/C=C/C#CC(C)(C)C)Cc1cccc2ccccc12 label_class=0.0
compound=CN(C)c1ccc(C2(c3ccc(N(C)C)cc3)OC(=O)c3cc(N(C)C)ccc32)cc1 label_class=0.0
compound=CCOC(=O)O[C@]1(C(=O)OCCl)CC[C@H]2[C@@H]3CCC4=CC(=O)C=C[C@]4(C)[C@H]3[C@@H](O)C[C@@]21C label_class=0.0
compound=CCCCN(CCCC)C(=O)N(CCCC)CCCC label_class=0.0
compound=CCCCc1oc2ccc(NS(C)(=O)=O)cc2c1C(=O)c1ccc(OCCCN(CCCC)CCCC)cc1 label_class=1.0
compound=NC(=O)C1(N2CCCCC2)CCN(CCCN2c3ccccc3CCc3ccc(Cl)cc32)CC1 label_class=1.0
compound=Cc1cccc2c1cc1ccc3cccc4ccc2c1c34 label_class=0.0
compound=C[C@H]1[C@H]2CC[C@H]3[C@@H]4CC=C5C[C@@H](N(C)C)CC[C@]5(C)[C@H]4CC[C@]23CN1C label_class=0.0
compound=CC(C)n1nc(-c2cc3cc(O)ccc3[nH]2)c2c(N)ncnc21 label_class=1.0
compound=O=C1C=CC(=O)N1 label_class=1.0
compound=CCCCN1CCCC[C@H]1C(=O)Nc1c(C)cccc1C label_class=0.0
compound=CCCCCCCCCCCC[N+](C)(C)CCCCCCCCCCCC label_class=1.0
compound="CCC(Cl)C(Cl)C(Cl)CC(Cl)C(Cl)C(C)Cl (stereo unspecified)" label_class=0.0
compound="CCCCC(CC)CN=C(N)NC(N)=NCCCCCCN=C(N)NC(N)=NCC(CC)CCCC (stereo unspecified)" label_class=1.0
compound=CCCCCCCCCCCCCCCS(=O)(=O)Oc1ccccc1 label_class=0.0
compound=NNc1nc(-c2ccc([N+](=O)[O-])cc2)cs1 label_class=0.0
compound=NNc1nc(-c2ccc(N)cc2)cs1 label_class=0.0
compound=O=C(NO)C1(NS(=O)(=O)c2ccc(Oc3ccc(F)cc3)cc2)CCOCC1 label_class=0.0
compound="CC1=NC(C)OC1C (stereo unspecified)" label_class=0.0
compound=Nc1nc2ccccc2n1Cc1ccc(F)cc1 label_class=0.0
